- Test system: 2-phenyl-1,4-benzoquinone-induced writhing
- method summary: 2-phenyl-1,4-benzoquinone-induced writhing test in mice (analgesic activity)
- Format: in vivo
- conditions: Mus musculus, sc; mice, dose 20 mg/kg of body wt., subcutaneous; read-out: Inhibition in Writhing (%)
- Text: Compounds of the present invention are useful as analgesic agents due to their ability to alleviate pain in mammals. […] Exptl. Biol. Med. 95, 729 (1957)].
Counter-ions that a name gives are not always drawn.
property label: inhibition in vivo at 20 mg/kg

compound	property label	observed result
CN(C)c1cccc(CC(=O)Cc2cccc(Cl)c2)c1	inhibition in vivo at 20 mg/kg	51%
CN(C)c1cccc(C(=O)COc2cccc(Cl)c2)c1	inhibition in vivo at 20 mg/kg	69%
CN(C)c1cccc(OCC(=O)Cc2cccc(Cl)c2)c1	inhibition in vivo at 20 mg/kg	41%
CN(C)c1cccc(C(=O)C(F)(F)C(O)c2cccc(Cl)c2)c1 (stereo not shown) [hydrochloride]	inhibition in vivo at 20 mg/kg	63%
CN(C)c1ccc(C(=O)C(F)c2cccc(Cl)c2)cc1 (stereo not shown)	inhibition in vivo at 20 mg/kg	44%
CN(C)c1cccc(CC(=O)C(F)(F)c2ccccc2)c1	inhibition in vivo at 20 mg/kg	58%
CN(C)c1ccc(C(=O)C(F)(F)c2ccccc2)cc1	inhibition in vivo at 20 mg/kg	67%
